biological target: T1, recombinant human IL-21 (human, UniProt Q9HBE4 30-162, limits assumed); experiment: method not stated for this clone (Table 2, column Kd hu)
T1 construct: also called huIL-21
T1 sequence (Q9HBE4 30-162 limits assumed, form in doubt): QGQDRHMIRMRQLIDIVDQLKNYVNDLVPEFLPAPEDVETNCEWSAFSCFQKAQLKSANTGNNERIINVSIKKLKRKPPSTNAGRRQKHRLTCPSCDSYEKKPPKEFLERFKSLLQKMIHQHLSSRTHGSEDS
Property Name: Kd (pM)
Give a bare numeral; the unit pM is implied.

Query block: Tell us which Kd value is on record for K2Ha-N56Q (antibody, human IgG1, kappa, V domains shown) VH: QVQLVQSGAEVKKPGASVKVSCKASGYTFTDYWMHWVRQAPGQGLEWMGTIDPSDQYTIYSQNFKGRVTMTRDTSTSTVYMELSSLRSEDTAVYYCARYGFAMDYWGQGTLVTVSS VL: DIQLTQSPSSLSASVGDRVTITCRASQDISNFLNWYQQKPGKAVKLLIYYTSRLHSGVPSRFSGSGSGTDYTLTISSLQPEDFATYFCQQGHTLPRTFGGGTKVEIKR
Result block: 0.403

Query block: Output Kd of K44VHa6-N56Q (antibody, IgG1, V domains shown) VH: QVQLVQSGAEVKKPGASVKVSCKASGYTFTDYWMHWVRQAPGQGLEWMGTIDPSDQYTIYSQNFKGRVTMTVDESTSTVYMELSSLRSEDTAVYYCARYGFAMDYWGQGTLVTVSS VL: DIQLTQSPSSLSASVGDRVTITCRASQDISNFLNWYQQKPGKAVKLLIYYTSRLHSGVPSRFSGSGSGTDYTLTISSLQPEDFATYYCQQGHTLPRTFGGGTKVEIKR
Result block: 0.245

Query block: Return Kd for the following binder: murine monoclonal antibody 9H10 (antibody, V domains shown, also called 9H10.1) VH: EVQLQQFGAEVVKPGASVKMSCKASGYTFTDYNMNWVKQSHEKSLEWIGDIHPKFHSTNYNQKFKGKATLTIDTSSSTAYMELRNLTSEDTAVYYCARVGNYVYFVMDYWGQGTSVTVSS VL: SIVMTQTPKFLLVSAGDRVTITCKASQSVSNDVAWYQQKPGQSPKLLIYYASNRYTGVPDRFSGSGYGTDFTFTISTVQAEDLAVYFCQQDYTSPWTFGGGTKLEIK
Result block: 108

Further cases:
Query block: Return value of Kd for input murine monoclonal antibody 9F11 (antibody, V domains shown, also called 9F11.1) VH: EVELVESGGGLVQPGGSMKLSCAASGFTFSDAWMDWVRQSPEKGLEWVAEIRSEADNHPTYYAESVKGRFTISRDDSKSSVYLQMNSLRAEDSGIYYCTEYDYEGFVHWGQGTLVTVSA VL: DIVLTQSPASLAVSLGQRATISCRASKSVSTYGYSYMHWYQQKPGQPPKLLIYLASNLESGVPARFSGSGSGTDFTLNIHPVEEEDAATYYCQHSRELPLTFGAGTKLELK , no commentary.
Result block: 9.99
